test system: Cyperus iria; assay: Preemergence weed control under flooded paddy conditions, CYPIR (Rice Flatsedge); assay type: in vivo; conditions: Rate 0.5000 kg/ha; preemergence, flooded paddy; rated three to four weeks after treatment
Exercise: for every item that follows, state its recorded herbicidal effect rating, CYPIR.
One number for each entry.

INSERT INTO assay_data (given_smiles, data_value) VALUES
  ('COC(=O)COc1ccc(C)cc1-c1noc2cc(F)c(-n3c(=O)cc(C(F)(F)F)n(C)c3=O)cc12', 9.0),
  ('Cn1c(C(F)(F)F)cc(=O)n(-c2ccc3snc(C(=O)NS(=O)(=O)c4cccs4)c3c2)c1=O', 9.0),
  ('CN(C(=O)c1nsc2ccc(-n3c(=O)cc(C(F)(F)F)n(C)c3=O)cc12)c1ccc(Cl)cc1', 9.0),
  ('Cn1c(C(F)(F)F)cc(=O)n(-c2ccc3snc(COC(=O)c4ccccc4)c3c2)c1=O', 9.0);

The compound identified as COc1ccc(O)c(-c2nsc3ccc(-n4c(=O)cc(C(F)(F)F)n(C)c4=O)cc23)c1 registered its herbicidal effect rating, CYPIR at 6.0

###

Exercise: for every item that follows, state its recorded ORYSAT herbicidal rating (rice tolerance).
tested on: Oryza sativa, (L.) Tebonnet; experiment: Rice tolerance to post-transplant applications under flooded paddy conditions (Example 187), ORYSAT (Rice, Tebonnet); settings: 0.0620 kg/ha, rated three to four weeks after treatment

INSERT INTO results (compound, data_value) VALUES
  ('Cc1ccc(CS(=O)(=O)NC(=O)c2nsc3ccc(-n4c(=O)cc(C(F)(F)F)n(C)c4=O)cc23)cc1 [Example 464]', 2.0);

# return ORYSAT herbicidal rating (rice tolerance) for each item in the list
1. Cn1c(C(F)(F)F)cc(=O)n(-c2ccc3snc(C(=O)NS(N)(=O)=O)c3c2)c1=O [Example 472]
2. Cn1c(C(F)(F)F)cc(=O)n(-c2cc3c(C(=O)NS(=O)(=O)Cc4ccccc4)nsc3cc2F)c1=O [Example 482]
3. Cn1c(C(F)(F)F)cc(=O)n(-c2ccc3snc(C(C)(C)C(=O)OCc4ccco4)c3c2)c1=O [Example 487]
4. CC(C)c1nsc2ccc(-n3c(=O)cc(C(F)(F)F)n(C)c3=O)cc12 [Example 499]

Given back:
1.0
2.0
3.0
8.0

# return ORYSAT herbicidal rating (rice tolerance) for each item in the list
1. CN(C(=O)c1nsc2ccc(-n3c(=O)cc(C(F)(F)F)n(C)c3=O)cc12)S(=O)(=O)Cc1ccccc1 [Example 494]
2. Cn1c(C(F)(F)F)cc(=O)n(-c2ccc3snc(C(C)(C)C(=O)NS(C)(=O)=O)c3c2)c1=O [Example 488]

Given back:
0.0
3.0

###

Exercise: for every item that follows, state its recorded herbicidal effect rating, CYPSE.
test system: Cyperus serotinus, Rottb.; test: Preemergence weed control under flooded paddy conditions, CYPSE (Flatsedge); type: in vivo; conditions: 0.5000 kg/ha, preemergence, rated three to four weeks after treatment; on herbicidal effect rating, CYPSE: meaning of each grade not given here
Answers are plain numbers.

# return herbicidal effect rating, CYPSE for each item in the list
1. CCc1ccc(-c2nsc3ccc(-n4c(=O)cc(C(F)(F)F)n(C)c4=O)cc23)cc1
2. Cc1cc(O)c(-c2nsc3ccc(-n4c(=O)cc(C(F)(F)F)n(C)c4=O)cc23)cc1C
3. COC(=O)COc1cc(C)c(C)cc1-c1nsc2ccc(-n3c(=O)cc(C(F)(F)F)n(C)c3=O)cc12
4. COC(=O)C(C)Oc1cc(C)c(C)cc1-c1nsc2ccc(-n3c(=O)cc(C(F)(F)F)n(C)c3=O)cc12 (stereo not drawn)
5. Cc1nsc2ccc(-n3c(=O)cc(C(F)(F)F)n(C)c3=O)cc12

Given back:
1: 7.0; 2: 7.0; 3: 7.0; 4: 7.0; 5: 9.0

The molecule identified as COC(=O)COc1ccc(C)cc1-c1nsc2ccc(-n3c(=O)cc(C(F)(F)F)n(C)c3=O)cc12 registered its herbicidal effect rating, CYPSE at 0.0

###

tested on: Cyperus iria; assay: Preemergence weed control under flooded paddy conditions, CYPIR (Rice Flatsedge); type: in vivo; conditions: Rate 0.0620 kg/ha; preemergence, flooded paddy; rated three to four weeks after treatment
Measured property: CYPIR herbicidal effect rating
Answers are plain numbers.

Illustrative cases are given below, each with its answer.
INSERT INTO results (compound, measured_on, measured_property, data_value) VALUES
  ('Cn1c(C(F)(F)F)cc(=O)n(-c2ccc3snc(C=C(Cl)Cl)c3c2)c1=O', 'Cyperus iria', 'CYPIR herbicidal effect rating', 9.0),
  ('COC(=O)COCc1nsc2ccc(-n3c(=O)cc(C(F)(F)F)n(C)c3=O)cc12', 'Cyperus iria', 'CYPIR herbicidal effect rating', 9.0),
  ('Cc1nsc2ccc(-n3c(=O)c(Cl)c(C(F)(F)F)n(C)c3=O)cc12', 'Cyperus iria', 'CYPIR herbicidal effect rating', 0.0),
  ('Cn1c(C(F)(F)F)cc(=O)n(-c2ccc3snc(CS(=O)(=O)CC(=O)O)c3c2)c1=O', 'Cyperus iria', 'CYPIR herbicidal effect rating', 8.0),
  ('Cn1c(C(F)(F)F)cc(=O)n(-c2ccc3snc(CSCC(=O)O)c3c2)c1=O', 'Cyperus iria', 'CYPIR herbicidal effect rating', 4.0),
  ('Cn1c(C(F)(F)F)cc(=O)n(-c2ccc3snc(C=C(Br)Br)c3c2)c1=O', 'Cyperus iria', 'CYPIR herbicidal effect rating', 9.0);

# return CYPIR herbicidal effect rating for each item in the list
1. Cn1c(C(F)(F)F)cc(=O)n(-c2ccc3snc(COCC(=O)O)c3c2)c1=O
2. COC(=O)COc1c(-c2nsc3ccc(-n4c(=O)cc(C(F)(F)F)n(C)c4=O)cc23)ccc(C)c1C

Given back:
1. 9.0
2. 8.0

###

test system: Cyperus serotinus, Rottb.; test: Preemergence weed control under flooded paddy conditions, CYPSE (Flatsedge); assay type: in vivo; details: 0.0620 kg/ha, preemergence weeds, herbicidal effect rating 0-9, three to four weeks after treatment
Measured property: CYPSE
One number for each entry.

Illustrative cases are given below, each with its answer.
INSERT INTO assay_data (molecule, measured_property, data_value) VALUES
  ('Cc1ccc(OCC(=O)N(C)S(C)(=O)=O)c(-c2nsc3ccc(-n4c(=O)cc(C(F)(F)F)n(C)c4=O)cc23)c1', 'CYPSE', 2.0),
  ('CCSC(=O)c1nsc2ccc(-n3c(=O)cc(C(F)(F)F)n(C)c3=O)cc12', 'CYPSE', 5.0),
  ('Cn1c(C(F)(F)F)cc(=O)n(-c2ccc3snc(C(SCCO)SCCO)c3c2)c1=O', 'CYPSE', 0.0);

# return CYPSE for each item in the list
1. Cn1c(C(F)(F)F)cc(=O)n(-c2ccc3snc(C(=O)C(C)(C)C)c3c2)c1=O
2. CN(c1ccc(-c2nsc3ccc(-n4c(=O)cc(C(F)(F)F)n(C)c4=O)cc23)cc1)S(C)(=O)=O
3. Cn1c(C(F)(F)F)cc(=O)n(-c2ccc3snc(C(=O)NS(=O)(=O)Cc4ccc(OC(F)(F)F)cc4)c3c2)c1=O
4. CC(OS(=O)(=O)C(C)C)c1nsc2ccc(-n3c(=O)cc(C(F)(F)F)n(C)c3=O)cc12 (stereo not shown)

Given back:
1: 3.5; 2: 0.0; 3: 0.0; 4: 3.0

###

tested on: Oryza sativa, (L.) Tebonnet; assay: Rice tolerance to post-transplant applications under flooded paddy conditions (Example 187), ORYSAT (Rice, Tebonnet); conditions: Rate 0.1250 kg/ha, rated three to four weeks after treatment; on herbicidal effect rating ORYSAT: meaning of each grade not given here
Measured property: herbicidal effect rating ORYSAT

# return herbicidal effect rating ORYSAT for each item in the list
1. COC(C)c1nsc2ccc(-n3c(=O)cc(C(F)(F)F)n(C)c3=O)cc12 (stereo not drawn) [Example 350]
2. COc1ccc(O)c(-c2nsc3ccc(-n4c(=O)cc(C(F)(F)F)n(C)c4=O)cc23)c1 [Example 361]
3. COC(=O)C(C)Oc1ccc(OC)cc1-c1nsc2ccc(-n3c(=O)cc(C(F)(F)F)n(C)c3=O)cc12 (stereo not drawn) [Example 348]
4. Cn1c(C(F)(F)F)cc(=O)n(-c2ccc3snc(CN(C(=O)OC(C)(C)C)S(C)(=O)=O)c3c2)c1=O [Example 304]
5. Cn1c(C(F)(F)F)cc(=O)n(-c2ccc3snc(/C=C/CBr)c3c2)c1=O [Example 360]
6. Cn1c(C(F)(F)F)cc(=O)n(-c2ccc3snc(C(=O)NS(C)(=O)=O)c3c2)c1=O [Example 323]

Given back:
9.0
4.0
4.0
4.0
3.5
6.0

# return herbicidal effect rating ORYSAT for each item in the list
1. Cc1ccc(OC(C)C(=O)NS(=O)(=O)C(C)C)c(-c2nsc3ccc(-n4c(=O)cc(C(F)(F)F)n(C)c4=O)cc23)c1 (stereo not drawn) [Example 568]
2. C[C@@H](Br)[C@H](Br)c1nsc2ccc(-n3c(=O)cc(C(F)(F)F)n(C)c3=O)cc12 [Example 303]
3. CNC.Cn1c(C(F)(F)F)cc(=O)n(-c2ccc3snc(CSCC(=O)NS(C)(=O)=O)c3c2)c1=O [Example 298]
4. CCOCN(C(=O)c1nsc2ccc(-n3c(=O)cc(C(F)(F)F)n(C)c3=O)cc12)S(C)(=O)=O [Example 370]
5. CONC(=O)COc1ccc(C)cc1-c1nsc2ccc(-n3c(=O)cc(C(F)(F)F)n(C)c3=O)cc12 [Example 316]
6. CN(C)C(=O)c1nsc2ccc(-n3c(=O)cc(C(F)(F)F)n(C)c3=O)cc12 [Example 329]
7. Cn1c(C(F)(F)F)cc(=O)n(-c2ccc3snc(C(=O)CBr)c3c2)c1=O [Example 337]

Given back:
1.0
5.0
0.0
4.0
4.5
3.0
3.0

# return herbicidal effect rating ORYSAT for each item in the list
1. CC(C)S(=O)(=O)NC(=O)c1nsc2ccc(-n3c(=O)cc(C(F)(F)F)n(C)c3=O)cc12 [Example 362]
2. Cn1c(C(F)(F)F)cc(=O)n(-c2ccc3snc(C(=O)NS(=O)(=O)Cc4ccccc4)c3c2)c1=O [Example 341]

Given back:
1. 4.0
2. 3.0
